# Test system: NOMO1
# PROTOCOL NOTES: cell viability relative to DMSO control; higher = less cytotoxic
# CONDITION SET: RPMI 5 mM glucose + 10% dialyzed FBS; 48 h; 0.19 µM
MEASURED QUANTITY: cell viability

Before answering, review these 8 worked examples.
Quick check: cell viability on NOMO1, item Cc1c(C(=O)Nc2cccc(C(F)(F)F)c2)cc(-c2ccccc2)n1CCCN1CCOCC1 ?
117%

Kindly state the measured cell viability obtained for COC1=CC=C(C=C1)C2CC(=N/N2C3=CC=C(C=C3)[S+](N)([O-])=O)\C4=CC=CC=C4 (centres undefined) with NOMO1.
86.2%

Give NOMO1 cell viability for CC(=O)[C@H]1CC[C@H]2[C@@H]3CCC4=CC(=O)CC[C@]4(C)[C@H]3CC[C@]12C
135%

Record CN(C)c1ccc2cc(C(=O)N[C@@H](CCCNC(=N)CCl)C(=O)NCc3ccccc3)ccc2c1 : what is its cell viability with NOMO1?
119%

Query cell viability on NOMO1 for CCCCCCCCCCCCCCCCCCOP(=O)([O-])OC1CC[N+](C)(C)CC1
118%

Find the measured cell viability: item O=C1NC(=O)/C(=C/c2cccc(C(F)(F)F)c2)S1 , target or system NOMO1.
92.9%

Provide value of cell viability for this record tested with NOMO1: CC(=O)O[C@@]12CO[C@@H]1C[C@H](O)[C@]3(C)[C@@H]2[C@H](OC(=O)C4=CC=CC=C4)[C@]5(O)C[C@H](OC(=O)C(O)[C@@H](NC(=O)OC(C)(C)C)C6=CC=CC=C6)C(=C(/[C@@H](O)C3=O)C5(C)C)/C (some centres undefined)
29.7%

Query the reported cell viability for NOMO1; item: C[C@@H]1CC[C@@]2(OC1)OC1CC3C4CC=C5CC(O)CCC5(C)C4CCC3(C)C1[C@@H]2C (some centres undefined)
93.1%

New cases:
Form field: cell viability recorded for CO[C@H]1C[C@@H]2CC[C@@H](C)[C@@](O)(O2)C(=O)C(=O)N2CCCC[C@H]2C(=O)O[C@H]([C@H](C)C[C@@H]2CC[C@@H](OCCO)[C@H](OC)C2)CC(=O)[C@H](C)/C=C(/C)[C@@H](O)[C@@H](OC)C(=O)[C@H](C)C[C@H](C)\C=C/C=C\C=C/1C with NOMO1 (enter value)
78.1%

Form: Entry = CN[S+](=O)([O-])CCc1ccc2[nH]cc(C3CCN(C)CC3)c2c1 | System = NOMO1 | cell viability = ____
104%

Item O=C1NC(O)CCN1[C@@H]1O[C@H](CO)[C@@H](O)[C@H]1O (some centres undefined) with NOMO1 - cell viability?
110%

GET /values?readout=cell viability&system=NOMO1&item= COc1cc(OC)c(NC(=O)Nc2cc(C)on2)cc1Cl
89.4%

# value lookup — system NOMO1, readout cell viability, item NC(=O)c1cccc(N)c1
133%

API: value(readout= cell viability, system= NOMO1, query= COc1cc([C@@H]2c3cc4c(cc3[C@@H](O[C@@H]3O[C@@H]5CO[C@@H](c6cccs6)O[C@H]5[C@H](O)[C@H]3O)[C@H]3COC(=O)[C@H]23)OCO4)cc(OC)c1O )
90.6%

Given the entry Nc1nc(OCc2ccccc2)c2nc[nH]c2n1 , what cell viability was observed with NOMO1?
125%

# get_value(readout= cell viability, system= NOMO1) for C[N+](C)([O-])CCNc1ccc(NCC[N+](C)(C)[O-])c2c1C(=O)c1c(O)ccc(O)c1C2=O
99.6%

Form field: cell viability recorded for C[C@@H]1C[C@H]2[C@@H]3CC\C4=C\C(=O)\C=C/[C@]4(C)[C@@]3(Cl)[C@@H](O)C[C@]2(C)[C@@]1(OC(=O)C5=CC=CO5)C(=O)CCl with NOMO1 (enter value)
110%

Give cell viability (NOMO1) of the following compound: CC(C)c1ccccc1Cc1cc(C(=O)Nc2ccc([S+](=O)([O-])c3ccccc3C(C)(C)C)cc2)c(O)c(O)c1O
118%

----------
Recorded measurements of cell viability, one per entry
# Test system: P12-Ichikawa
# PROTOCOL NOTES: cell viability relative to DMSO control; higher = less cytotoxic
# CONDITION SET: RPMI 5 mM glucose + 10% dialyzed FBS; 48 h; 46.1 µM
# unit: % | format: bare number

Given the compound CN(C)CC/C=C1/c2ccccc2COc2ccc(CC(=O)O)cc21 , what is its reported cell viability?
138

Endpoint output: cell viability of COc1ccc(Nc2cc(-c3cnc(N)nc3)nc(N3CCOCC3)n2)cn1 . Value?
51.7

Now consider a different compound.
Param item = COC[C@H]1OC(=O)C2=COC3=C2[C@@]1(C)\C4=C(\[C@@H]5CC[C@H](O)[C@@]5(C)C[C@H]4OC(C)=O)C3=O ; retrieve measured cell viability.
58.9

----------
// cell viability lookup, one value per entry
# Tested on: NOMO1
# PROTOCOL NOTES: cell viability relative to DMSO control; higher = less cytotoxic
# CONDITION SET: RPMI 5 mM glucose + 10% FBS; 48 h; 15.4 µM
The reply should contain only the number, in %.

Record excerpt, results attached:
Need cell viability of COc1ccc(Nc2cc(-c3cnc(N)nc3)nc(N3CCOCC3)n2)cn1 , thanks.
65.4

What cell viability value was documented for this compound, NC(=O)Nc1cc(-c2ccc(CN3CCOCC3)cc2)sc1C(N)=O ?
58.5

Quick one: cell viability for COc1cc(OC)c(NC(=O)Nc2cc(C)on2)cc1Cl ?
88.7

Consider the compound O=C(NNC(=O)c1ccc(CN[S+](=O)([O-])c2ccc(F)c(Cl)c2)cc1)c1ccccc1 and give its measured cell viability.
94.5

Look up cell viability for this compound: NC(=O)c1cccc(N)c1
113

So what's the measured cell viability for this one? Nc1nc(OCc2ccccc2)c2nc[nH]c2n1
108

Field request: cell viability | item: Cc1ccc(-c2ncn(-c3ccc(Nc4nccc(-c5cccc(N6CCOCC6)c5)n4)cc3)n2)cn1
5.58

What does the record list as cell viability for N\C1=N\C2=C(N=C[N]2COC(CO)CO)C(=O)N1 ?
101

Any idea what cell viability was measured for CO[C@H]1C[C@@H]2CC[C@@H](C)[C@@](O)(O2)C(=O)C(=O)N2CCCC[C@H]2C(=O)O[C@H]([C@H](C)C[C@@H]2CC[C@@H](OCCO)[C@H](OC)C2)CC(=O)[C@H](C)/C=C(/C)[C@@H](O)[C@@H](OC)C(=O)[C@H](C)C[C@H](C)\C=C/C=C\C=C/1C ?
61.3

// cell viability lookup, key: CCN1C[C@]2(OC(=O)c3ccccc3NC(C)=O)CC[C@H](OC)[C@@]34[C@@H]2C[C@@H]([C@@H]13)[C@@]1(O)C[C@H](OC)[C@H]2C[C@@H]4[C@]1(O)[C@H]2OC
101

Others:
Need cell viability, item CC(C)(C)NC(=O)[C@@H]1CN(Cc2cccnc2)CCN1C[C@@H](O)C[C@@H](Cc1ccccc1)C(=O)N[C@H]1c2ccccc2C[C@H]1O.O=S(=O)(O)O
130

// returns reported cell viability for input CNCC(O)C(O)C(O)C(O)CO.O=C(O)c1ccc(-c2cc3cccnc3c(-c3ccc4nonc4c3)n2)cc1
119

----------
# System: P12-Ichikawa
# PROTOCOL NOTES: cell viability relative to DMSO control; higher = less cytotoxic
# CONDITION SET: HPLM + 10% dialyzed FBS; 48 h; 0.000781 µM
Parameter: cell viability. Scope: all listed entries.
Output spec: scalar in %, unitless text.

Field: example entries. Status: answers known.
Find the recorded cell viability belonging to C#Cc1cccc(Nc2ncnc3cc(OC)c(OCCCCCCC(=O)NO)cc23)c1 and report it.
126

May I ask what cell viability has been recorded for CN(C)CCCNC(=O)c1ccc(-c2cc(O)c3ncccc3c2)cc1 ?
102

Item under review: O=C(NNC(=O)c1ccc(CN[S+](=O)([O-])c2ccc(F)c(Cl)c2)cc1)c1ccccc1 . Reported cell viability?
97.4

So what's the measured cell viability for this one? CC(NCc1ccc2c(c1)[nH]/c(=N\C(=O)c1ccc(-c3cn[nH]c3)s1)n2CC(C)(C)O)C(C)(C)C (stereo not drawn)
117

I would be grateful if you could share the reported cell viability for N\C1=N\C2=C(N=C[N]2COC(CO)CO)C(=O)N1 .
107

// returns reported cell viability for input OC(COC1=C2C(=O)\C=C(/OC2=CC=C1)C([O-])=O)COC3=C4C(=O)\C=C(/OC4=CC=C3)C([O-])=O
84.8

Look up cell viability: C[S+]([O-])c1ccc(-c2nc(-c3ccc(F)cc3)c(-c3ccncc3)[nH]2)cc1 (stereo not drawn)
103

cell viability lookup needed for COC1(C[S+]([O-])c2ccccc2)CCN(CCc2c[nH]c3ccc(F)cc23)CC1 (stereo not drawn) , thanks.
112

Next:
Requested read-out: cell viability. Entry: O=c1[nH]cnc2c1ncn2[C@H]1CC[C@@H](CO)O1
95.9

I would be grateful if you could share the reported cell viability for CC(C)c1ccccc1Cc1cc(C(=O)Nc2ccc([S+](=O)([O-])c3ccccc3C(C)(C)C)cc2)c(O)c(O)c1O .
112

Entry CCN(C)C(=O)Oc1cccc([C@H](C)N(C)C)c1 has what cell viability?
117

Consider the molecule Cc1ncc([N+](=O)[O-])n1CCO and give its measured cell viability.
116

Returns the measured cell viability for the input molecule. Input: CNCC(O)C(O)C(O)C(O)CO.O=C(O)c1ccc(-c2cc3cccnc3c(-c3ccc4nonc4c3)n2)cc1
105

Fill blank: measured cell viability of the molecule CO[C@@H]1C(N(C)C(=O)c2ccccc2)C[C@H]2O[C@]1(C)n1c3ccccc3c3c4c(c5c6ccccc6n2c5c31)C(=O)NC4=O (stereo partly drawn) is ____.
84.9

Which cell viability is reported for this molecule? O=C(CCCCCCC(=O)Nc1ccccc1)NO
87.9
